studyTarget: aldose reductase (Bos taurus, UniProt P16116)
Construct: preparation of the enzyme from bovine lens; from tissue; host or cells: bovine lens
measurementDescription: In vitro aldose reductase inhibition (modified Hayman and Kinoshita procedure; enzyme from bovine lens)
Format: biochemical
protocolConditions: read-out: % Inhibition IN VITRO 10^-7 M
Recorded inhibition at 0.1 µM, one value per entry.
Give the number; % is assumed, so skip it.

Some solved cases for reference:
structureSmiles | metric | measurement
CC(C)c1nc(SCc2ccccc2)c(C#N)c(=O)n1CC(=O)O | inhibition at 0.1 µM | 94
CC(C)Sc1nc(C2CCCCC2)n(CC(=O)O)c(=O)c1C#N | inhibition at 0.1 µM | 90
Cc1nc(N2CCN(Cc3ccccc3)CC2)c(C#N)c(=O)n1CC(=O)O | inhibition at 0.1 µM | 64
Cc1nc(NCc2ccccc2)c(C#N)c(=O)n1CC(=O)O | inhibition at 0.1 µM | 78
Cc1nc(NCC2CCCCC2)c(C#N)c(=O)n1CC(=O)O | inhibition at 0.1 µM | 72

Moving on to another compound below.
Query string: Please report inhibition at 0.1 µM for the following compound: `N#Cc1c(-c2ccccc2)nc(-c2cccc3c(Br)cccc23)n(CC(=O)O)c1=O`
Result string: 22

====

studyTarget: aldose reductase (Bos taurus)
Construct: preparation of the enzyme from bovine lens; from tissue; host or cells: bovine lens
measurementDescription: In vitro aldose reductase inhibition (modified Hayman and Kinoshita procedure; enzyme from bovine lens)
Type: biochemical
protocolConditions: read-out: % Inhibition IN VITRO 10^-6 M
Label t when inhibition at 1 µM is at or above 90%; otherwise label f.

structureSmiles | studyTarget | assignedCategory
Cc1nc(N2CCCCC2)c(C#N)c(=O)n1CC(=O)O | aldose reductase (Bos taurus) | f
N#Cc1c(-c2ccccc2)nc(-c2cccc3ccccc23)n(CC(=O)O)c1=O | aldose reductase (Bos taurus) | f
CC(C)Sc1nc(C(C)C)n(CC(=O)O)c(=O)c1C#N | aldose reductase (Bos taurus) | t
N#Cc1c(SCc2ccc(Br)cc2)nc(C2CCCCC2)n(CC(=O)O)c1=O | aldose reductase (Bos taurus) | t
N#Cc1c(Cc2cccc3ccccc23)nc(-c2cccc3c(Br)cccc23)n(CC(=O)O)c1=O | aldose reductase (Bos taurus) | f

Query string: Reported inhibition at 1 µM at or above 90%? `Cc1nc(-c2cccc3ccccc23)n(CC(=O)O)c(=O)c1C#N`
Result string: f

Query string: Reported inhibition at 1 µM at or above 90%? `CCCCCCSc1nc(C2CCCCC2)n(CC(=O)O)c(=O)c1C#N`
Result string: t

Query string: Reported inhibition at 1 µM at or above 90%? `N#Cc1c(SCc2ccccc2)nc(C2CCCCC2)n(CC(=O)O)c1=O`
Result string: t

Query string: Reported inhibition at 1 µM at or above 90%? `N#Cc1c(SCC2CCCCC2)nc(C2CCCCC2)n(CC(=O)O)c1=O`
Result string: t

Query string: Reported inhibition at 1 µM at or above 90%? `CSc1nc(C)n(CC(=O)O)c(=O)c1C#N`
Result string: f

Query string: Reported inhibition at 1 µM at or above 90%? `N#Cc1c(-c2ccccc2)nc(-c2cccc3c(Br)cccc23)n(CC(=O)O)c1=O`
Result string: f

Query string: Reported inhibition at 1 µM at or above 90%? `CSc1nc(C(C)C)n(CC(=O)O)c(=O)c1C#N`
Result string: t

Query string: Reported inhibition at 1 µM at or above 90%? `CC(C)c1nc(SCc2ccccc2)c(C#N)c(=O)n1CC(=O)O`
Result string: t

The values you see were collected from patent US4786638A.
